bioavailability overview
test: in vivo; settings: Sprague-Dawley, rat, po, 10 umol/kg
Note: unit % is implicit; provide only the numeric part.

{"columns": ["compound", "unit.descriptor", "bioavailability"],
 "data": [
  ["O=C(NCc1ccc(OC(F)(F)F)cc1)C1c2ccccc2C(=O)N1CCc1ncc(F)cn1 (stereo not given)", "%", 44],
  ["O=C(NCc1ccc(OC(F)(F)F)cc1)C1c2ccccc2C(=O)N1C1CCOCC1 (single isomer, unassigned; enantiomer 2)", "%", 20],
  ["O=C(NCc1ccc(F)c(C(F)(F)F)c1)C1c2ccccc2C(=O)N1CCc1ncc(F)cn1 (stereo not given)", "%", 4],
  ["O=C(NCc1cccc(OC(F)(F)F)c1)C1c2ccccc2C(=O)N1CCc1ncc(F)cn1 (stereo not given)", "%", 6]
]}

The record that follows has no bioavailability shown yet.
Query: Identify measured bioavailability corresponding to O=C(NCc1ccc(OC(F)(F)F)cc1)C1c2ccccc2C(=O)N1CCc1ccccn1 (stereo in doubt; 16A)
Response: 37

###

assay: in vitro; conditions: human, microsomes, CLH
result.type: microsomal CLint

Some molecules with known microsomal CLint results, for comparison:
{"columns": ["molecule", "reported.result"],
 "data": [
  ["O=C(NCc1ccc(OC(F)(F)F)cc1)C1c2ccccc2C(=O)N1CCC(F)(F)F (centres undefined)", "< 10 µL/min/mg"],
  ["CC1(C(=O)NCc2ccc(OC(F)(F)F)cc2)c2ccccc2C(=O)N1CCc1ccccn1 (racemic)", "> 500 µL/min/mg"],
  ["O=C(NCc1ccc(F)c(C(F)(F)F)c1)C1c2ccccc2C(=O)N1CCc1ncc(F)cn1 (centres undefined)", "< 10 µL/min/mg"]
]}

The record that follows has no microsomal CLint shown yet.
Query: Identify measured microsomal CLint corresponding to O=C(NCc1ccc(OC(F)(F)F)cc1)C1c2ccccc2C(=O)N1CCCc1ccccn1 (centres undefined)
Response: > 500 µL/min/mg

###

assay: physchem
result.type: solubility at 4 h (µM)
Note: unit µM is implicit; provide only the numeric part.

{"columns": ["compound", "result.type", "reported.result"],
 "data": [
  ["O=C(NCc1ccc(OC(F)(F)F)cc1)C1c2ccccc2C(=O)N1CCc1ncccn1 (stereo not given)", "solubility at 4 h", 310],
  ["O=C(NCc1ccccc1Br)C1c2ccccc2C(=O)N1CCc1ccccn1 (stereo not given)", "solubility at 4 h", 280],
  ["O=C(NCc1ccc(OCC(F)(F)F)cc1)C1c2ccccc2C(=O)N1CCc1ccccn1 (stereo not given)", "solubility at 4 h", 42],
  ["N#CCCN1C(=O)c2ccccc2C1C(=O)NCc1ccc(OC(F)(F)F)cc1 (stereo not given)", "solubility at 4 h", 45]
]}

Query: Identify measured solubility at 4 h corresponding to O=C(NCc1ccc(F)c(C(F)(F)F)c1)C1c2ccccc2C(=O)N1CCc1ncc(F)cn1 (stereo not given)
Response: 14

Query: Identify measured solubility at 4 h corresponding to O=C(NCc1ccc(OCC(F)(F)F)nc1)C1c2ccccc2C(=O)N1CCc1ccccn1 (stereo not given)
Response: 88

Query: Identify measured solubility at 4 h corresponding to O=C(NCc1ccc(OC(F)(F)F)cc1)C1c2ccccc2C(=O)N1CCc1ncc(F)cn1 (stereo not given)
Response: 25

Query: Identify measured solubility at 4 h corresponding to O=C(NCc1cccc(Br)c1)C1c2ccccc2C(=O)N1CCc1ccccn1 (stereo not given)
Response: 6

Query: Identify measured solubility at 4 h corresponding to O=C(NCc1ccc(OC(F)(F)F)cc1)C1c2cccc(F)c2C(=O)N1CCc1ccccn1 (stereo not given)
Response: 26

Query: Identify measured solubility at 4 h corresponding to O=C(NCc1ccc(OC(F)(F)F)cc1)C1c2ccccc2C(=O)N1CCCc1ccccn1 (stereo not given)
Response: 6

Query: Identify measured solubility at 4 h corresponding to O=C(NCc1ccc(OC(F)(F)F)cc1)C1c2ccccc2C(=O)N1CCN1CCOCC1 (stereo not given)
Response: 200

Query: Identify measured solubility at 4 h corresponding to Cc1cccc2c1C(C(=O)NCc1ccc(OC(F)(F)F)cc1)N(CCc1ccccn1)C2=O (stereo not given)
Response: 1

Query: Identify measured solubility at 4 h corresponding to O=C(NCc1ccc(OC(F)(F)F)cc1)C1c2ccccc2C(=O)N1CCc1ccncc1 (stereo not given)
Response: 61
